assay: ADME solubility determination in PBS at pH 2.0 and pH 7.4; assay type: physicochemical; conditions: phosphate buffered saline, 25 °C, pH 2, aqueous buffer, thermodynamic from solid, PBS pH 2.0, 25° C., read-out: Solubility at pH 2.0
readout_kind: solubility at 24 h

1. COc1cc(C(F)(F)F)nn1-c1ccc(CN2CCCn3nc(-c4c(C)cnn4C(C)C)cc32)cc1F: < 10 µM
2. COc1ncnc(C2CC2)c1-c1cc2n(n1)CCCN2Cc1ccc(-c2nc(C(F)(F)F)cn2C(C)C)c(F)c1: ≥ 10 µM

Now turn to the next compound.
Form: compound = CCn1cc(C(F)(F)F)nc1-c1ccc(CC2c3cc(-c4c(Cl)cnn4C(C)C)nn3CCN2C)cc1 (stereo not drawn) ; solubility at 24 h = ≥ 10 µM
